Reference for the values: paper PMC10343475

The following compounds are shown together with reported melting point values.
property-measured: melting point

INSERT INTO measurements (smiles_representation, assay_value) VALUES
  ('COc1ccc(Cn2c(=O)c(C(=O)NC34CC5CC(CC(C5)C3)C4)c(O)c3nn(C)cc32)c(OC)c1', '> 270 °C'),
  ('CCCCn1c(=O)c(C(=O)NC23CC4CC(CC(C4)C2)C3)c(O)c2c1c(C)nn2C', '162 to 165 °C'),
  ('CCn1cc2c(n1)c(O)c(C(=O)NC13CC4CC(CC(C4)C1)C3)c(=O)n2CC', '245 to 247 °C'),
  ('CCCCCn1c(=O)c(C(=O)NC23CC4CC(CC(C4)C2)C3)c(O)c2c1c(C)nn2C', '167 to 169 °C');

---

The following compounds are shown together with reported melting point values.
property-measured: melting point

INSERT INTO assay_data (smiles_representation, property_measured, assay_value) VALUES
  ('CCCCn1c(=O)c(C(=O)NC23CC4CC(CC(C4)C2)C3)c(O)c2nn(C)c(C)c21', 'melting point', '213 to 216 °C'),
  ('Cc1c2c(nn1C)c(O)c(C(=O)NC13CC4CC(CC(C4)C1)C3)c(=O)n2C(C)C', 'melting point', '> 260 °C'),
  ('CCCCCn1c(=O)c(C(=O)NC23CC4CC(CC(C4)C2)C3)c(O)c2nn(C)c(C)c21', 'melting point', '67 °C'),
  ('Cn1cc2c(n1)c(O)c(C(=O)NC13CC4CC(CC(C4)C1)C3)c(=O)n2Cc1ccccc1', 'melting point', '180 to 183 °C');

---

Target: human CB2 receptor (Homo sapiens)
Assay: Competition binding assay, displacement of [3H]-CP-55,940, CB2R
Parameters: unit not given here
Details: log of experimental Ki
The following compounds are shown together with reported logKiCB2 (nM) Exp. values.
property-measured: logKiCB2 (nM) Exp.

INSERT INTO measurements (smiles_representation, target_system, assay_value) VALUES
  ('CCCCn1c(=O)c(C(=O)NC23CC4CC(CC(C4)C2)C3)c(O)c2nn(CC)cc21', 'human CB2 receptor (Homo sapiens)', '−0.35'),
  ('CCCCn1c(=O)c(C(=O)NC(C)(C)C)c(O)c2nn(CC)cc21', 'human CB2 receptor (Homo sapiens)', 2.02),
  ('CC(C)n1c(=O)c(C(=O)NC23CC4CC(CC(C4)C2)C3)c(O)c2c1cnn2C', 'human CB2 receptor (Homo sapiens)', 1.73),
  ('CCCCCn1c(=O)c(C(=O)NC23CC4CC(CC(C4)C2)C3)c(O)c2nn(C)c(C)c21', 'human CB2 receptor (Homo sapiens)', 0.32),
  ('CC(C)n1c(=O)c(C(=O)NC23CC4CC(CC(C4)C2)C3)c(O)c2c1cnn2CC#N', 'human CB2 receptor (Homo sapiens)', 1.68),
  ('CCCCn1c(=O)c(C(=O)NC23CC4CC(CC(C4)C2)C3)c(O)c2nn(C)c(C)c21', 'human CB2 receptor (Homo sapiens)', 0.33),
  ('CCCCCn1c(=O)c(C(=O)NC23CC4CC(CC(C4)C2)C3)c(O)c2c1c(C)nn2C', 'human CB2 receptor (Homo sapiens)', 1.53);

---

Molecular target: human CB2 receptor (Homo sapiens, UniProt P34972)
Sequence (P34972 whole entry): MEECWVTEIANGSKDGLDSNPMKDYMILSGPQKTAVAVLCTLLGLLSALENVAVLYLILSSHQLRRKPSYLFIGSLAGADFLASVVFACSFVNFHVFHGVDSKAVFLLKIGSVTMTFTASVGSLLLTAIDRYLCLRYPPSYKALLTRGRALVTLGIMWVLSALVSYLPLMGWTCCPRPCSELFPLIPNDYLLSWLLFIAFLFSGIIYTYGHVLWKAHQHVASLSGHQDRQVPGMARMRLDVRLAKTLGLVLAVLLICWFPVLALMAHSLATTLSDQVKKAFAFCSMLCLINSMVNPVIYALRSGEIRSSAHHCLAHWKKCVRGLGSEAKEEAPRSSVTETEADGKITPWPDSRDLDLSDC
Test: Competition binding assay, displacement of [3H]-CP-55,940, CB2R
Settings: membranes from HEK cells, [3H]CP-55,940; mean ± SD, at least three experiments in duplicate; read-out: CB2R Ki
The following compounds are shown together with reported Ki values.
property-measured: Ki

INSERT INTO assay_data (compound, target_system, property_measured, assay_value) VALUES
  ('CC(C)n1c(=O)c(C(=O)NC2CCCCCCC2)c(O)c2nn(C)cc21', 'human CB2 receptor (Homo sapiens, UniProt P34972)', 'Ki', '> 10 µM'),
  ('COc1ccc(Cn2c(=O)c(C(=O)NC34CC5CC(CC(C5)C3)C4)c(O)c3nn(C)cc32)c(OC)c1', 'human CB2 receptor (Homo sapiens, UniProt P34972)', 'Ki', '> 10 µM'),
  ('CC(C)n1c(=O)c(C(=O)NC2CCCc3ccccc32)c(O)c2nn(C)cc21 (stereo not shown)', 'human CB2 receptor (Homo sapiens, UniProt P34972)', 'Ki', '> 10 µM'),
  ('CCCCn1c(=O)c(C(=O)NC(C)(C)C)c(O)c2nn(CC)cc21', 'human CB2 receptor (Homo sapiens, UniProt P34972)', 'Ki', '0.106 µM'),
  ('CCCCn1c(=O)c(C(=O)NCc2ccc(F)cc2)c(O)c2nn(C)cc21', 'human CB2 receptor (Homo sapiens, UniProt P34972)', 'Ki', '> 10 µM'),
  ('CCn1cc2c(n1)c(O)c(C(=O)NC13CC4CC(CC(C4)C1)C3)c(=O)n2CC', 'human CB2 receptor (Homo sapiens, UniProt P34972)', 'Ki', '0.024 µM'),
  ('CC(C)n1c(=O)c(C(=O)NC23CC4CC(CC(C4)C2)C3)c(O)c2nn(Cc3ccc(F)cc3)cc21', 'human CB2 receptor (Homo sapiens, UniProt P34972)', 'Ki', '> 10 µM'),
  ('CCCCn1c(=O)c(C(=O)NC(C)(C)C)c(O)c2nn(C)cc21', 'human CB2 receptor (Homo sapiens, UniProt P34972)', 'Ki', '> 10 µM'),
  ('CCCCn1c(=O)c(C(=O)NC(c2ccccc2)c2ccccc2)c(O)c2nn(C)cc21', 'human CB2 receptor (Homo sapiens, UniProt P34972)', 'Ki', '0.142 µM'),
  ('CC(C)n1c(=O)c(C(=O)NC(c2ccccc2)c2ccccc2)c(O)c2nn(C)cc21', 'human CB2 receptor (Homo sapiens, UniProt P34972)', 'Ki', '> 10 µM');

---

The following compounds are shown together with reported Ki values.
Target: human CB2 receptor (Homo sapiens)
Assay: Competition binding assay, displacement of [3H]-CP-55,940, CB2R
Conditions: logKiCB2 (nM) Exp., log of experimental Ki
property-measured: Ki

INSERT INTO assay_data (compound, target_system, property_measured, assay_value) VALUES
  ('CCCCn1c(=O)c(C(=O)NC2CCCc3ccccc32)c(O)c2nn(C)cc21 (centres unmarked)', 'human CB2 receptor (Homo sapiens)', 'Ki', '24 nM'),
  ('CCCCn1c(=O)c(C(=O)NC2CCCCCCC2)c(O)c2nn(C)cc21', 'human CB2 receptor (Homo sapiens)', 'Ki', '14.5 nM');

---

Biological target: human CB2 receptor (Homo sapiens, UniProt P34972)
Experiment: Competition binding assay, displacement of [3H]-CP-55,940, CB2R
The following compounds are shown together with reported SI (selectivity index for CB2R, Ki(CB1R)/Ki(CB2R)) values.
property-measured: SI (selectivity index for CB2R, Ki(CB1R)/Ki(CB2R))

INSERT INTO measurements (smiles_representation, assay_value) VALUES
  ('CC(C)n1c(=O)c(C(=O)NC23CC4CC(CC(C4)C2)C3)c(O)c2c1cnn2C', '>184'),
  ('CC(C)n1c(=O)c(C(=O)NC23CC4CC(CC(C4)C2)C3)c(O)c2c1cnn2CC#N', '>206'),
  ('CCCCn1c(=O)c(C(=O)NC2CCCCCCC2)c(O)c2nn(C)cc21', '>1107');

---

Biological target: human CB2 receptor (Homo sapiens, UniProt P34972)
Experiment: Competition binding assay, displacement of [3H]-CP-55,940, CB2R
The following molecules are shown together with reported SI (selectivity index for CB2R, Ki(CB1R)/Ki(CB2R)) values.
property-measured: SI (selectivity index for CB2R, Ki(CB1R)/Ki(CB2R))

INSERT INTO measurements (molecule, target_system, assay_value) VALUES
  ('CCCCn1c(=O)c(C(=O)NC(C)(C)C)c(O)c2nn(CC)cc21', 'human CB2 receptor (Homo sapiens, UniProt P34972)', '>95'),
  ('CCCCn1c(=O)c(C(=O)NC23CC4CC(CC(C4)C2)C3)c(O)c2c1c(C)nn2C', 'human CB2 receptor (Homo sapiens, UniProt P34972)', '>280'),
  ('CCCCn1c(=O)c(C(=O)NC23CC4CC(CC(C4)C2)C3)c(O)c2nn(CC)cc21', 'human CB2 receptor (Homo sapiens, UniProt P34972)', 227),
  ('CCCCn1c(=O)c(C(=O)NC2CCCc3ccccc32)c(O)c2nn(C)cc21 (centres unmarked)', 'human CB2 receptor (Homo sapiens, UniProt P34972)', '>578'),
  ('CCn1cc2c(n1)c(O)c(C(=O)NC13CC4CC(CC(C4)C1)C3)c(=O)n2CC', 'human CB2 receptor (Homo sapiens, UniProt P34972)', '>416'),
  ('C#CCn1ncc2c1c(O)c(C(=O)NC13CC4CC(CC(C4)C1)C3)c(=O)n2C(C)C', 'human CB2 receptor (Homo sapiens, UniProt P34972)', '>162'),
  ('CCCCn1c(=O)c(C(=O)NC(c2ccccc2)c2ccccc2)c(O)c2nn(C)cc21', 'human CB2 receptor (Homo sapiens, UniProt P34972)', '>70'),
  ('CCCCCn1c(=O)c(C(=O)NC23CC4CC(CC(C4)C2)C3)c(O)c2c1c(C)nn2C', 'human CB2 receptor (Homo sapiens, UniProt P34972)', '>293');
